System: Kasumi-1
test_description: Cell viability assay, Kasumi-1
Assay type: cell-based
measurement_context: Homo sapiens; Kasumi-1, acute myeloid leukemia; cell viability, 72 hours
reported_endpoint: pIC50
Scale note: pIC50 = -log10(concentration in M).

Task: Can you look up the measured pIC50 of CC(C)NC(=O)c1ccc(Nc2nccc(-c3ccc4nc(N5CCCC5)ncc4c3)n2)cc1 for me?
Output: 5.09
